- System: UO-31
- Assay Details: NCI tumour cell line growth inhibition, 48 h
Calls of active or inactive are those of the source. Cut-off read from the data, not from the text of the source: active = GI50 up to about 1.1 µM and inactive = higher.
Lab note: assign the record to one of active, inactive

Input: Outcome? CC(=O)Nc1ccc(C(=O)N2N=C(C)/C(=C\c3c(O)ccc4ccccc34)C2=O)cc1
Output: inactive

Input: What outcome does the record of this test show for CC(=O)OC1(C)CC(C)C(=O)C(C(O)CC2CC(=O)NC(=O)C2)C1 (stereo not given) ?
Output: active

Input: Answer briefly: the call reported for C/C(=N\NS(=O)(=O)c1ccccc1)c1ccccc1 in this assay.
Output: inactive

Input: How was CCN1CN(c2ccccc2)C2(CCN(CC(CC3OCCO3)c3ccc(F)cc3)CC2)C1=O (stereo not given) classified in this test?
Output: inactive

Input: Write down the call the test reported for this compound. Item: CC(=O)C1=C(C)N2C(=NC3=C(CCc4ccccc43)C2c2ccc(Cl)cc2)S1 (stereo not given)
Output: inactive
